Biological target: T1, human ENTPD2 expressed on cells (human, UniProt Q9Y5L3 1-495)
T1 sequence: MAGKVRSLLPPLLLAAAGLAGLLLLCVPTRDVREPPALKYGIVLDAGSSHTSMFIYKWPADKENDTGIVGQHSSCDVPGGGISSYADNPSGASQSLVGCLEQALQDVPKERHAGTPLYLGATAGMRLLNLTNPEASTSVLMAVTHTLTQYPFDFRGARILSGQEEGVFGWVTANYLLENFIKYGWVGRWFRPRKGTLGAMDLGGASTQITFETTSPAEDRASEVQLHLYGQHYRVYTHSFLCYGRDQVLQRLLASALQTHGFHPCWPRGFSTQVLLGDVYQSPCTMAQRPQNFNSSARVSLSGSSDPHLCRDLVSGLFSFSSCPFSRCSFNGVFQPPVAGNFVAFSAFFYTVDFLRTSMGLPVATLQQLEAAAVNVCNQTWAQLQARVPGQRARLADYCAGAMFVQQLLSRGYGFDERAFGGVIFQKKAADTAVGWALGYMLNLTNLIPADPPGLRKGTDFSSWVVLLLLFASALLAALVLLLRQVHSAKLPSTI
Assay: cell-based or functional assay
Documented IC50, Human ENTPD2 NIH/3T3 Assay across a set of binders
property-measured: IC50, Human ENTPD2 NIH/3T3 Assay

ANTI-HUMAN ENTPD2 MAB18 (antibody, human IgG1, kappa, V domains shown) VH: DIQLQESGPGLVKPSQSLSLTCSVTGYSITSGYYWNWIRQFPGNKLEWMGYISYDGDNNYNPSLKNRISITRDTSKNQFFLKLSSVTTEDTATYYCAGGYYRYGLGSYSGSYYYVMDYWGQGTSVTVSS VL: DTVLTQSPASLAVSLGQRATISCKASQSVDYDGNSYMNWYQQKPGQPPKLLIYAASNLESGIPARFSGSGSGTDFTLNIHPVEEEDAATYYCQQSNEDPPTFGGGTKLEIKR; 0.4 nM
ANTI-HUMAN ENTPD2 MAB6 (antibody, human IgG1, kappa, V domains shown, humanized and optimized from mAb16; human IgG1, kappa; also called Anti-ENTPD2 mAb6) VH: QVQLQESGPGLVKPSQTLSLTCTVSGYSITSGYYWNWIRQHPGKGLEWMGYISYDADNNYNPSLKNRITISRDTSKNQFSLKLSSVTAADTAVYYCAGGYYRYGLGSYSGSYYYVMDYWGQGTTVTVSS VL: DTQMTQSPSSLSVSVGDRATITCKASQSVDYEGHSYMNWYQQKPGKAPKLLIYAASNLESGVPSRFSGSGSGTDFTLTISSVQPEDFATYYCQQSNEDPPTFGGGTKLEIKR; 0.3 nM
ANTI-HUMAN ENTPD2 MAB10 (antibody, human IgG1, lambda, V domains shown, also called Anti-ENTPD2 mAb10) VH: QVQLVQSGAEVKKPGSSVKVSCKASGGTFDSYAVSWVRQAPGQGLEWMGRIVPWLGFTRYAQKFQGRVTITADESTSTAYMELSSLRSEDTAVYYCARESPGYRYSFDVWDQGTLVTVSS VL: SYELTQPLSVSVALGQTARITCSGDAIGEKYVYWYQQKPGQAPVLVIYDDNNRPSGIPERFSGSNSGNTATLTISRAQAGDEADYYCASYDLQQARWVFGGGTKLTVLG; 0.4 nM

// provenance: patent US20220348651A1
